- test.system: human TLR9 (Homo sapiens)
- Sequence (Q9NR96 26-1032): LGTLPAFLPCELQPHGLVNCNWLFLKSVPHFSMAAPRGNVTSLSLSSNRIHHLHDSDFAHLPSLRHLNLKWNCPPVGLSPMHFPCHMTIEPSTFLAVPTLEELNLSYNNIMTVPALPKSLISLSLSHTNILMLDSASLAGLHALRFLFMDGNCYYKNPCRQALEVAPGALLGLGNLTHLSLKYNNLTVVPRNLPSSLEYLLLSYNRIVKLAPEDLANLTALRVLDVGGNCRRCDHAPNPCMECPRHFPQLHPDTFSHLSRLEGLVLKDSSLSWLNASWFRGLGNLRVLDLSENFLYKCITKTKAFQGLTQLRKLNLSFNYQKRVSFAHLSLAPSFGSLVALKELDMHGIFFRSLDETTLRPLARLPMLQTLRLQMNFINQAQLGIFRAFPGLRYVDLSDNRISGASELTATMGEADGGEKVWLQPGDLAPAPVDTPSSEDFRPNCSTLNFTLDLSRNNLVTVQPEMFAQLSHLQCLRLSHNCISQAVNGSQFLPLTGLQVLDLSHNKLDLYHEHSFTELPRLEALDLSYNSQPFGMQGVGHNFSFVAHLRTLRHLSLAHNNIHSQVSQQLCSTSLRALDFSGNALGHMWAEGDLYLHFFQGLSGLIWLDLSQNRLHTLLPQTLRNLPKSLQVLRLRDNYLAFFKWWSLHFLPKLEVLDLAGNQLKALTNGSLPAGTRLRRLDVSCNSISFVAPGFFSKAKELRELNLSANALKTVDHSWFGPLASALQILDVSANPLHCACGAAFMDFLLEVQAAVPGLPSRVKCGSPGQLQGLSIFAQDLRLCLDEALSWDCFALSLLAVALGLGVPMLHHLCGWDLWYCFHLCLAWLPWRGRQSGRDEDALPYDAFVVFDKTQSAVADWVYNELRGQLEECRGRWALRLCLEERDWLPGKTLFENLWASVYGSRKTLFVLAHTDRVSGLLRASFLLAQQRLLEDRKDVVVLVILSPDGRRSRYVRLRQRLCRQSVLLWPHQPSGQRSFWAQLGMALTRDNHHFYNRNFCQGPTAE
- assay.text: TLR9 inhibition reporter assay (HEK-Blue cells, SEAP reporter, ODN2006 stimulation)
- run.conditions: HEK-Blue cells overexpressing human TLR9, SEAP reporter, ODN2006 5 nM
- From the text: TLR7/8/9 Inhibition Reporter Assays HEK-Blue™-cells (Invivogen) overexpressing human TLR7, TLR8 or TLR9 receptors were used for screening inhibitors of these receptors using an inducible SEAP (secreted embryonic alkaline phosphatase) reporter gene under the control of the IFN-β minimal promoter fused to five NF-κB and AP-1-binding sites. […]
outcome.measure: IC50 (µM)

INSERT INTO assay_data (compound, test_system, outcome_measure, number) VALUES
  ('CCN(C)C1CCC(c2nc3c(C(C)C)c(-c4cn(C)c5ncccc45)[nH]c3s2)CC1 (single isomer, unassigned) [Example 174]', 'human TLR9 (Homo sapiens)', 'IC50', 16);

[1] Cc1c(-c2[nH]c3sc(C4CCN(CC5CCOCC5)CC4)nc3c2C(C)C)cn2ncnc2c1C
[2] CNC(=O)CNC1CCC(c2nc3c(C(C)C)c(-c4cn5ncnc5c(C)c4C)[nH]c3s2)CC1 (single isomer, unassigned) [Example 209]
[3] Cc1c(-c2[nH]c3sc(C4CCC(N(C)CC(C)C)CC4)nc3c2C(C)C)cn2ncnc2c1C (single isomer, unassigned) [Example 228]
Order the entries by their reported IC50, beginning at the minimum. Lab note: record answer as labels in requested order.
2, 3, 1
(2: 4.17 µM, 3: 8.86 µM, 1: 19.5 µM)
